Listing of recorded Enzyme Activity Endpoint Assay (purified): Fc by entry.
tgt: pooled human IgG (human IgG1,2,3 and 4)
Supply the numeric figure in ng/µL, leaving out any unit text.

{"columns": ["protein", "units-symbol", "numeric-readout"],
 "data": [
  ["PRT-335 (protein) MTITSVWTKGVTPPTPEDFRENNEDVLHAPYVANQGWYDITKTFDGKDNLLCGAATAGNMLHWWFDQNKEEIERYLKKHPEKQKIIFGNQELFDVKAAIDTKDSQTNSKLFDYFRDKAFPGLSARQLGVFPDLVLDMFINGYYLNLGKTQSTDVNRPYQDKDKRGGIFDAVFTRGVQTTLLTARHDLKNKGLNEISDLIKQELTEGKALALSHTYANVRINHVINLWGADFDAEGELIAIYVTDSDANPSIGMKKYFVGRNANGKVAISAKKIEGDNIGAQVLGLFTLSTGQDQWQKLS", "ng/µL", 154]
]}

input: Query Enzyme Activity Endpoint Assay (purified): Fc for PRT-370 (protein) MSQTEDSESLQRLRDIEDFQAEKKDQNVVYTKWLDGVDVKDHDFRKIVDGNSAYYATPLLNGRGWYDINKDFNRDNDKCAAAVAANMFHYWLDRNRDNVDRFLRQNPEKHGIIELPDGQLKLSDFLNTYESDDGYRDKSKLFDFISENFNGPVWTDKLLDNYINGYAYNYKYGRTIEDSTKNTSKINFFKEVFNEKILTNNHSIRNQNEFSVLLIEALYTGKAIGLSYGPAGLRHSLGHIISVWGADLDADGNVVAIYVTDSDDKKLTIGDERVGLKRYKISTDDEGRLRLTAYEETHNTGGQVRGLWTLDTGKQAWADYFDKTEQTGTDQAEQ
output: 348

input: Provide measured Enzyme Activity Endpoint Assay (purified): Fc value, entry: PRT-667 (protein) MQITSVWTKGVTPLTPEQFRYNNEDVFHAPYLAHQGWYDITKAFNGKDNLLCGAATAGNMLHWWFDQNKEEIEAYLKKHPEKQKIIFNNQELFDLRKAINTKDSQTNSQLFNYFRDKAFPNLSARQLGVMPDLVLDMFINGYYLNLNKTQSTDVNRPYQDKDKRGGIFDHVFTRGDQTTLLTARHDLKNKTLNDISQLIKQELQEGKALALSHTYANVSISHVINLWGADFNAEGNLEAIYVTDSDSDASIGMKKYFVGKNASGHVAISAKKIEGENIGAQVLGLFTLSSGKEIWQKLSLEHHHHHH
output: 197

input: // Input: PRT-327 (protein) MTITSVWTKGVTPPTPEDFRENNEDVLHAPYVANQGWYDITKTFDGKDNLLCGAATAGNMLHWWFDQNKEEIERYLKKHPEKQKIIFNNQELFDVKAAIDTKDSQTNSKLFDYFRDKAFPNLSARQLGVMPDLVLDMFINGYYLNLGKTQSTDVNRPYQDKDKRGGIFDAVFTRGDQTTLLTARHDLKNKGLNEISDLIKQELTEGKALALSHTYANVRINHVINLWGADFDAEGELIAIYVTDSDANPSIGMKKYFVGRNANGKVAISAKKIEGDNIGAQVLGLFTLSTGQDIWQKLS . Output its Enzyme Activity Endpoint Assay (purified): Fc only.
output: 338
